Would you mind telling me the reported z-score of each entry?
- Run Description: basal HepG2 mitochondrial membrane potential changes, profiling panel, cell-based, JC-1 fluorescence, 24 h, 100 nL compound (AID 1167); also: test concentration not given here
- Condition Parameters: higher = more signal
One number for each entry.

Past entries and their recorded results:
COc1c(C)cc(-c2cc3c(c(CCc4ccccc4)n2)[Si](C(C)C)(C(C)C)O[C@H]3c2ccccc2)cc1C : -2.39
Cc1ccc(S(=O)(=O)N2[C@@H](c3ccccc3)C(C(=O)O)=C[C@H]2C(C)(C)C)cc1 : -0.747
C[C@]1(C(=O)O)c2ccccc2C(=O)N(Cc2cc(C(F)(F)F)cc(C(F)(F)F)c2)[C@H]1c1ccc(CO)cc1 : -0.244
COc1cc2c(cc1OC)CN(C(=O)[C@@H]1[C@H]3C(=O)O[C@H](c4ccccc4)[C@H](c4ccccc4)N3[C@H](c3ccc(O)cc3)[C@@]13C(=O)Nc1ccc(C#CC4=CCCCC4)cc13)CC2 : -0.948
COc1ccc(NN2C(C(O)c3ccccc3)C=CC3C(=O)N(C4CCCCC4)C(=O)C32)cc1 (configuration not stated) : -0.536
[N-]=[N+]=NCc1ccccc1[C@H]1OC(c2ccc(OCCCO)cc2)=N[C@@]1(CCS(=O)(=O)c1ccccc1)C(=O)O : -1.24
Cc1ccc(S[C@]2(C(=O)NC3CC3)CC(=O)N(C3Cc4ccccc4C3)[C@@H]2c2ccc(CO)cc2I)cc1 : -0.24
O=C1NC(=O)C2C1C=CC(C(O)C(c1ccccc1)c1ccccc1)N2Nc1ccccn1 (configuration not stated) : 0.176
O=C1O[C@H](c2ccccc2)[C@H](c2ccccc2)N2[C@H]1[C@@H](C(=O)N1CCN(c3ncccn3)CC1)[C@]1(C(=O)Nc3ccc(C#CC4(O)CCCCCC4)cc31)[C@H]2c1ccc(O)cc1 : -0.553
COC(=O)[C@@]1(Cc2ccc(OC)cc2)[C@@H]2[C@@H](CC(=O)[C@H]2CC(=O)C(=O)N(C)C)CN1C(=O)c1ccccc1 : 1.1

Dear reader, for each entry below, please note its z-score.
1. O=C1O[C@@H](c2ccccc2)[C@@H](c2ccccc2)N2[C@@H](c3ccccc3OCCO)[C@]3(C(=O)Nc4ccc(C#CC5(O)CCCCCC5)cc43)[C@@H](C(=O)N3CCCCCCC3)[C@H]12
2. CO[C@H]1O[C@H](CO)[C@@H](OC(=O)Nc2cccc(F)c2)[C@H](OC(=O)c2cc3ccccc3[nH]2)[C@H]1OC(=O)c1cc2ccccc2[nH]1
3. [N-]=[N+]=NCc1ccccc1C[C@]1(C(=O)N2CCCCC2)COC(c2ccc(OCCCO)cc2)=N1
4. C=C(C(=O)CC[C@@H](OC(=O)c1cccnc1)c1cccc(OCCO)c1)C(C)C
5. O=C1C2C=CC(C(O)c3ccccn3)N(Nc3ccc([N+](=O)[O-])cc3)C2C(=O)N1c1ccccc1 (configuration not stated)
6. CCOC(=O)C[C@H]1[C@H](OC(=O)c2ccccc2-c2ccccc2)[C@@H](NC(=O)CC(C)C)c2cc(OCCCO)ccc2N1C(=O)c1ccccc1

Ans:
-1.4
-1.56
-0.792
-0.0539
-1.47
2.01

Dear reader, for each entry below, please note its z-score.
1. COCCCNC(=O)[C@]1(Cc2ccccc2N=[N+]=[N-])N=C(c2ccc(OCCCO)cc2)O[C@@H]1c1ccccc1
2. CCCCCCCCCCC(O)C1C=CC2C(=O)N(C)C(=O)C2N1Nc1ccccc1 (configuration not stated)
3. COc1ccc(C(=O)Nc2ccc(CN3C(=O)[C@]4(O[C@H](CC(=O)N(CCO)Cc5ccccc5)[C@@H]([Si](C)(C)c5ccc(OC)cc5)[C@@H]4C)c4ccccc43)cc2)cc1

Ans:
2.34
-1.18
0.353

Dear reader, for each entry below, please note its z-score.
1. C[N+](C)(C)CCCC[C@@H]1NC(=O)[C@H]2C[C@@H](C(=O)NCCCCCN)[C@@H](c3ccc(O)cc3)N2C1=O
2. [N-]=[N+]=NCc1ccccc1C[C@@]1(C(=O)NCCN2CCOCC2)N=C(c2ccc(OCCCO)cc2)O[C@@H]1c1ccccc1
3. COc1ccc(C#Cc2ccc3c(c2)[C@]2(C(=O)N3)[C@H](c3ccccc3OCCO)N3[C@H](c4ccccc4)[C@H](c4ccccc4)OC(=O)[C@H]3[C@@H]2C(=O)NC[C@H](O)c2ccccc2)cc1

Ans:
1.66
-0.3
-1.21
